Data origin: the supplement of paper PMC6755084

A collection of variants and their measured fraction ligated
B1: F1*; the commonest letter at each place (parent)
chain: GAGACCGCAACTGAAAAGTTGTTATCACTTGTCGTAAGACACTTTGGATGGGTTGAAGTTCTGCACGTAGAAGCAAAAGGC

Variants of: B1
assay.info: fraction ligated after 30 min (ligated reads / total reads); higher = more ligase activity
measurement.conditions: with F1*sub RNA substrate (template-directed ligation), 42 °C
Number only, no unit.

[Q] State the recorded fraction ligated for this entry: T32G G34T
[A] 0.793

[Q] Moving on to the next variant: T23C C33A
[A] 0.786

[Q] What about this variant? A24G G47A
[A] 0.684
